In what follows, each item is paired with its pIC50 for UniProt P00533.
Note: pIC50 values are expressed as the negative base-10 logarithm of concentration in M.

>  <compound>
CC1CCc2c(sc3ncnc(Nc4ccc(S(N)(=O)=O)cc4)c23)C1 (centres unmarked) [5f]

>  <pIC50>
7.45

$$$$

Lookup: Field request: pIC50 | item: CC1CCc2c(sc3ncnc(Nc4ccccc4F)c23)C1 (centres unmarked) [5b]
Found: 7.43

----------
biological target: EGFR^T790M (Homo sapiens, UniProt P00533, T790M); assay: EGFR^T790M kinase inhibition
Sequence (P00533 25-1210 T790M): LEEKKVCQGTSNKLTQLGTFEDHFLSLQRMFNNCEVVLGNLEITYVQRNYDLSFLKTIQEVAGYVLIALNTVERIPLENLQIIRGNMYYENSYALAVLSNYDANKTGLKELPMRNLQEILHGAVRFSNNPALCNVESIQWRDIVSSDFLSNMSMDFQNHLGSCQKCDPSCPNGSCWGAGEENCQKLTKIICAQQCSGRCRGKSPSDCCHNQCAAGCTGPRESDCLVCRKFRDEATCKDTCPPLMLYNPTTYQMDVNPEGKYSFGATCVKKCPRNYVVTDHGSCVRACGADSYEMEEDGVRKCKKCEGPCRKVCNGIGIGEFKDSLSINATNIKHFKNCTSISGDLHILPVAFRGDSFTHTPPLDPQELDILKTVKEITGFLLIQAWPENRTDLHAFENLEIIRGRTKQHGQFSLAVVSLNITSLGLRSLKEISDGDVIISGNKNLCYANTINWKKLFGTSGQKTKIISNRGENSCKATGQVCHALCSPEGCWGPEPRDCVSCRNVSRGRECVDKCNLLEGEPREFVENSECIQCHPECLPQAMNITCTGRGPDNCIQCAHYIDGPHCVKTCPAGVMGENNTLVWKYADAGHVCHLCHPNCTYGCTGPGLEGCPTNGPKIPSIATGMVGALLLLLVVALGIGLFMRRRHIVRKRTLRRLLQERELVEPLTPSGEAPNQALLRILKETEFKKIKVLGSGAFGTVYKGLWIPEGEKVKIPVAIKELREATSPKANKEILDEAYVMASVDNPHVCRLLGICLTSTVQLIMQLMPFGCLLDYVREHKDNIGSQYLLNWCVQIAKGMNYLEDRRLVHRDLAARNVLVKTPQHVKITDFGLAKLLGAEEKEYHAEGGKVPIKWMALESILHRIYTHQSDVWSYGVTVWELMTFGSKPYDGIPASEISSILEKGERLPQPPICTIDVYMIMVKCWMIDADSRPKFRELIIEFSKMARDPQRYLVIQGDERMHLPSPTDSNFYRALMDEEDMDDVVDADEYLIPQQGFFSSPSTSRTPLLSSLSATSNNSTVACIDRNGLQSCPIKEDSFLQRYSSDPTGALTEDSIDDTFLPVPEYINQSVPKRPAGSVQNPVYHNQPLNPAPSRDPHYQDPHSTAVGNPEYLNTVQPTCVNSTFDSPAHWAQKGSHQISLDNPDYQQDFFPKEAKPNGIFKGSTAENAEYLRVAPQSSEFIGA
measured-metric: IC50 (nM)
Express it in nM; write the number only.

Lookup: Field request: IC50 | item: CC1CCc2c(sc3ncnc(Nc4ccccc4F)c23)C1 (stereo not shown) [5b]
Found: 204
